Cited source: ChEMBL document CHEMBL4130640

# test details: physchem
# study conditions: aqueous solution, pH 6.8
measured quantity: solubility thermodynamic (µM)

C[C@H](Oc1ncc(NC(=O)Cc2ccncc2)cc1Cl)c1ccccc1 ... 28
